Would you mind telling me the reported IC50 of each entry?
# test_target: recombinant human His-ATG7 enzyme (Homo sapiens (Human))
# Sequence (O95352 whole entry): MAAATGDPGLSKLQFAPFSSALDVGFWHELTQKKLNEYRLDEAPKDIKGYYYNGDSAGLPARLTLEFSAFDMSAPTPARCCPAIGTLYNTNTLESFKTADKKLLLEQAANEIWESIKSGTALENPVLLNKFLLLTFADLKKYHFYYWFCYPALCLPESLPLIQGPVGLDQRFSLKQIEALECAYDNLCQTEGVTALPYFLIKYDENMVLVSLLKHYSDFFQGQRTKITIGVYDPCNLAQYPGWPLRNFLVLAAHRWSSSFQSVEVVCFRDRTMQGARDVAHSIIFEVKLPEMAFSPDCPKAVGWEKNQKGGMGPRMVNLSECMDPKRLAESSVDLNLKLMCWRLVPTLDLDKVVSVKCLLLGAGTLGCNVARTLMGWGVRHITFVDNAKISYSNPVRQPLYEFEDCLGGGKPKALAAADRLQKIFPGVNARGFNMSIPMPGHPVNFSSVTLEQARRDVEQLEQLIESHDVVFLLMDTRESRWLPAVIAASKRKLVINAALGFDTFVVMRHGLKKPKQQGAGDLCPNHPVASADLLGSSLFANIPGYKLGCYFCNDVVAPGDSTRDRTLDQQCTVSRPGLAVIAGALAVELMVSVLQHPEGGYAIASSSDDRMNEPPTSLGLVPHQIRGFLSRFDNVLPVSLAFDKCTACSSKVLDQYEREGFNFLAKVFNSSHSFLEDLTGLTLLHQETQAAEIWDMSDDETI
# experiment_notes: ATG7 Enzyme Assay (HTRF/FRET, ATG3-GST and Flag-Gabarap)
# Protocol: Example 97: ATG7 Enzyme Assay The total volume of the ATG7 enzymatic assay is 50 μL and contains 50 mM HEPES Hemisodium (pH 7.5), 0.05% BSA, 0.01% Tween-20, 25 mM NaCl, 5 mM MgCl2, 10 μM ATP, 250 μM GSH, 5 nM ATG3-GST, 5 nM Flag-Gabarap, 100 μM TCEP and 0.15 nM recombinant human His-ATG7 enzyme. […] After incubation for 2 hours at 24° C., quantification of FRET is performed on the Pherostar™ (BMG Labtech). […]

Consider the reported IC50 for these compounds:
COc1nn([C@H]2C[C@H](O)[C@@H](COS(N)(=O)=O)O2)c2ncnc(N)c12 | 100 to 500 nM
Nc1ncnc2c1c(SCc1cccnn1)nn2[C@@H]1O[C@H](COS(N)(=O)=O)[C@@H](O)[C@@H]1F | 50 to 100 nM
COCc1nn([C@@H]2O[C@H](COS(N)(=O)=O)[C@@H](O)[C@H]2O)c2ncnc(N)c12 | 100 to 500 nM
Cn1cc(Sc2nn([C@@H]3O[C@H](COS(N)(=O)=O)[C@@H](O)[C@H]3O)c3ncnc(N)c23)cn1 | 20 to 50 nM
CC(C)Sc1nn([C@@H]2O[C@H](COS(N)(=O)=O)[C@@H](O)[C@@H]2F)c2ncnc(N)c12 | 20 to 50 nM
Nc1ncnc2c1c(SCCO)nn2[C@@H]1O[C@H](COS(N)(=O)=O)[C@@H](O)[C@H]1O | < 20 nM

Batch of 4 compounds: report IC50 for each.
1. Nc1ncnc2c1c(Sc1ccc3c(c1)CCO3)nn2[C@H]1C[C@H](O)[C@@H](COS(N)(=O)=O)O1
2. Nc1ncnc2c1c(Sc1cccc(C(F)(F)F)c1)nn2[C@@H]1O[C@H](COS(N)(=O)=O)[C@@H](O)[C@@H]1F
3. Nc1ncnc2c1c(C(F)F)nn2[C@H]1C[C@H](O)[C@H](COS(N)(=O)=O)O1
4. Nc1ncnc2c1c(SC1CCC1)nn2[C@@H]1O[C@H](COS(N)(=O)=O)[C@@H](O)[C@H]1O

Output:
["20 to 50 nM", "50 to 100 nM", "100 to 500 nM", "< 20 nM"]

Batch of 6 compounds: report IC50 for each.
1. Cn1cncc1Sc1nn([C@@H]2O[C@H](COS(N)(=O)=O)[C@@H](O)[C@@H]2F)c2ncnc(N)c12
2. CC(Sc1nn([C@@H]2O[C@H](COS(N)(=O)=O)[C@@H](O)[C@@H]2F)c2ncnc(N)c12)C1CC1 (mixture of isomers)
3. CCC(C)Sc1nn([C@@H]2O[C@H](COS(N)(=O)=O)[C@@H](O)[C@@H]2F)c2ncnc(N)c12 (mixture of isomers) [Compound I-136]
4. Cc1ccc(Sc2nn([C@H]3C[C@H](O)[C@H](COS(N)(=O)=O)O3)c3ncnc(N)c23)cc1
5. C#Cc1nn([C@@H]2O[C@H](COS(N)(=O)=O)[C@@H](O)[C@H]2O)c2ncnc(N)c12
6. Cc1cccc(Sc2nn([C@@H]3O[C@H](COS(N)(=O)=O)[C@@H](O)[C@@H]3F)c3ncnc(N)c23)n1

Output:
1: 100 to 500 nM; 2: 20 to 50 nM; 3: 20 to 50 nM; 4: 100 to 500 nM; 5: 50 to 100 nM; 6: 50 to 100 nM

Batch of 7 compounds: report IC50 for each.
1. CC(C)(O)CSc1nn([C@@H]2O[C@H](COS(N)(=O)=O)[C@@H](O)[C@H]2O)c2ncnc(N)c12
2. CCC(CC)Sc1nn([C@@H]2O[C@H](COS(N)(=O)=O)[C@@H](O)[C@@H]2F)c2ncnc(N)c12
3. Nc1ncnc2c1c(Sc1cccc(Cl)c1)nn2[C@H]1C[C@H](O)[C@H](COS(N)(=O)=O)O1
4. Nc1ncnc2c1c(Sc1cn[nH]c1)nn2[C@@H]1O[C@H](COS(N)(=O)=O)[C@@H](O)[C@H]1O
5. Nc1ncnc2c1c(SCC1CC1)nn2[C@H]1C[C@H](O)[C@@H](COS(N)(=O)=O)O1
6. Nc1ncnc2c1c(SCCO)nn2[C@H]1C[C@H](O)[C@@H](COS(N)(=O)=O)O1
7. Nc1ncnc2c1c(OCc1ccccc1)nn2[C@@H]1O[C@H](COS(N)(=O)=O)[C@@H](O)[C@H]1O

Output:
["50 to 100 nM", "100 to 500 nM", "100 to 500 nM", "< 20 nM", "50 to 100 nM", "100 to 500 nM", "100 to 500 nM"]

Batch of 4 compounds: report IC50 for each.
1. Nc1ncnc2c1c(SCC1=CCCCC1)nn2[C@@H]1O[C@H](COS(N)(=O)=O)[C@@H](O)[C@H]1O
2. COc1ccc(F)c(Sc2nn([C@H]3C[C@H](O)[C@@H](COS(N)(=O)=O)O3)c3ncnc(N)c23)c1
3. Cc1cccc(Sc2nn([C@@H]3O[C@H](COS(N)(=O)=O)[C@@H](O)[C@@H]3F)c3ncnc(N)c23)c1
4. CSc1nn([C@H]2C[C@H](O)[C@@H](COS(N)(=O)=O)O2)c2ncnc(N)c12

Output:
1: 20 to 50 nM; 2: 20 to 50 nM; 3: 20 to 50 nM; 4: 20 to 50 nM

Record summary for Nc1ncnc2c1c(Sc1cccc(OC(F)(F)F)c1)nn2[C@H]1C[C@H](O)[C@@H](COS(N)(=O)=O)O1 : reported IC50 = 100 to 500 nM
